Target: human amylin receptor (hAMYR3) (Homo sapiens, UniProt O60896+P30988)
Construct: host or cells: BHK cells (Hollex-1 line expressing hCTR(a) and CRE-Luc), further transfected with human RAMP3
Sequence (P30988 25-474): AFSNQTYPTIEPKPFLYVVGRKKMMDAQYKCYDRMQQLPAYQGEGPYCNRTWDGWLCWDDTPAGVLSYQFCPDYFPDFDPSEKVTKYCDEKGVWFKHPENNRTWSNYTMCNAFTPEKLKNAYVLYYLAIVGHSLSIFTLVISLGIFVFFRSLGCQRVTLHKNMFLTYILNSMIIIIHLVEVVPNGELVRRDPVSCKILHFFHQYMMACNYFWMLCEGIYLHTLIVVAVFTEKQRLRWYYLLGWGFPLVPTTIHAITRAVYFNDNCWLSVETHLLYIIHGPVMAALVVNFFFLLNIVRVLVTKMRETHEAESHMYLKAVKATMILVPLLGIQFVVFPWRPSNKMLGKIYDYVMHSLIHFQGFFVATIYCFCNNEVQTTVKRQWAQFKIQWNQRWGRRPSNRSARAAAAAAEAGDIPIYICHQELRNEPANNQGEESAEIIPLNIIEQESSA
Sequence (O60896 24-148): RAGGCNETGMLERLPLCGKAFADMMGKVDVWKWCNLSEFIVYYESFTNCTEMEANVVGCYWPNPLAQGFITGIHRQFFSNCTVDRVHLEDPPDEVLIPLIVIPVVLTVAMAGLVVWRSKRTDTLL
Experiment: Amylin receptor assay, method A (CRE-luciferase reporter, BHK cells)
Format: cell-based
Conditions: method A, absence of HSA; read-out: hAMYR3 Potency, no HSA, EC50
Numbered stars: 1 amine (or outer) side, 2 acyl side, 3 side chain; on linkers, the order of the positions; unused ones are H or OH. Square brackets hold non-standard residues; d marks the D form. Side chains are listed from the residue outwards. * marks the point of attachment. C20 diacid = O=C(O)CCCCCCCCCCCCCCCCCCC(=O)*; C18 diacid = O=C(O)CCCCCCCCCCCCCCCCC(=O)*; γGlu = O=C(O)[C@H](CCC(=O)[*:2])N[*:1]; AEEA = NCCOCCOCC(=O)O; Aib = CC(C)(N)C(=O)O
What pEC50 was measured for each of the following?
The value called pEC50 is obtained by taking minus log10 of the concentration in mol/L.

QUERY: Fill in the recorded pEC50 for this substance, with human amylin receptor (hAMYR3) (Homo sapiens, UniProt O60896+P30988) as test system: H[Aib]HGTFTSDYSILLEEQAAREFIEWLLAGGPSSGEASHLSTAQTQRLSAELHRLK([AEEA-AEEA-γGlu-C18 diacid])TLPRTETGSGSP-NH2 [Compound 83]
RESULT: 11.54

QUERY: Can you check H[Aib]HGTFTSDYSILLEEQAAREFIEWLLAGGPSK([AEEA-AEEA-γGlu-C18 diacid])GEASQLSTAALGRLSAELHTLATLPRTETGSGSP-NH2 [Compound 63] next?
RESULT: 11.54

QUERY: Can you check Y[Aib]EGTFTSDYSILLEEQAAREFIEWLLAGGPSSGAGQAPGQAPGASHLSTAALGRLSAELHK([AEEA-AEEA-γGlu-C18 diacid])LATLPRTETGSGSP-NH2 [Compound 53] next?
RESULT: 11.49

QUERY: Can you check Y[Aib]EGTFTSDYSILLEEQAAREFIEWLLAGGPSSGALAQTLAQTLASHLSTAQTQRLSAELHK([AEEA-AEEA-γGlu-C20 diacid])LATLPRTETGSGSP-NH2 [Compound 60] next?
RESULT: 11.41

QUERY: Can you check H[Aib]HGTFTSDYSILLEEQAAREFIEWLLAGGPSSGAGQAPGQAPLASHLSTAQTQRLSAELHK([AEEA-AEEA-γGlu-C18 diacid])LATLPRTETGSGSP-NH2 [Compound 93] next?
RESULT: 11.65
